meta.source: patent US12649723B2

- EXPERIMENTAL DETAILS: Liver microsome stability
- Format: in vitro ADME, human
- CONDITION PARAMETERS: amount of substrate remaining; compound 1 μM, 30 minutes, 37° C., NADPH
REPORTED PROPERTY: Human (%)
Could you give me the number in %? Just the number is fine.

>>> print(df.to_string())
                                   molecule  reported_property  unit_tag  measured_value
0  COc1cc(NN=C(C#N)C#N)ccc1OCc1nc2ccccc2s1 [Compound 165]          Human (%)         %            42.4
1  Cc1cc(NN=C(C#N)C#N)ccc1OCc1nc2ccccc2[nH]1 [Compound 146]          Human (%)         %            64.6
2  Cc1cc(NN=C(C#N)C#N)ccc1OCc1nc2ccccc2o1 [Compound 156]          Human (%)         %            49.3

Which Human (%) value belongs to Cc1cccc(C(=O)Nc2ccc(NN=C(C#N)C#N)cn2)c1F [Compound 20] ? 91.9

Then this molecule: Cc1cnc(C(=O)Nc2ccc(NN=C(C#N)C#N)c(F)c2)cn1 [Compound 3] 95.7
